- assay: pH of 0.1M solution of the acids tested (Table 1)
- Format: physicochemical
outcome measure: pH of 0.1M Solution
// no unit string in output, number only

Example results:
>  <structure string>
O=CO

>  <outcome measure>
pH of 0.1M Solution

>  <measured number>
2.39

$$$$
>  <structure string>
CC(=O)O

>  <outcome measure>
pH of 0.1M Solution

>  <measured number>
2.88

$$$$
>  <structure string>
O=C(O)c1ccccc1

>  <outcome measure>
pH of 0.1M Solution

>  <measured number>
2.61

$$$$

Would you kindly look at the next entry?
pH of 0.1M Solution recorded for this compound, O=C(O)CC(O)(CC(=O)O)C(=O)O , is 2.06
